Origin of values: paper PMC2270722

measurementDescription: plasma flavanol and dimer concentrations by HPLC after cocoa beverage
Type: in vivo, human
experimentalConditions: after high dose of cocoa (0.50 g/kg BW)
readout: concentration in human plasma reached (µM)

[[record]]
compound = "Oc1cc(O)c2c(c1)O[C@H](c1ccc(O)c(O)c1)[C@H](O)C2 [epicatechin, (-)-epicatechin]"
recordedvalue = 2.86

